Entries and their measured inhibition at 1 µM follow.
# target of assay: c-Met kinase domain recombinant protein (Homo sapiens, UniProt P08581)
# Construct: 50 μL diluted solution of c-Met kinase domain recombinant protein in reaction buffer was added to initiate the reaction
# Sequence (P08581 1078-1345 limits assumed): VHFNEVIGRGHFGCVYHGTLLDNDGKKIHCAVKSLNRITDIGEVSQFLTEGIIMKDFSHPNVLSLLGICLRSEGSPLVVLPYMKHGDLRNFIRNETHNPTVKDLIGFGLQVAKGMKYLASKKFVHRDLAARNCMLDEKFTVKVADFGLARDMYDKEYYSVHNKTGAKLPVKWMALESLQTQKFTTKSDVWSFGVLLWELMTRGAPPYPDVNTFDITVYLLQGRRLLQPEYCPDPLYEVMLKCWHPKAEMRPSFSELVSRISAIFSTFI
# method summary: biochemical
# condition details: read-out: Average inhibition rate at 1 μM (%)
# Procedure: Enzymatic reaction substrate Poly(Glu,Tyr)4:1 was diluted to 20 μg/mL in potassium ion free PBS (10 mM sodium phosphate buffer, 150 mM NaCl, pH7.2-7.4), microplate was coated with this solution at 125 μL per well, and reacted at 37° C. for 12-16 hours. […] The plate was washed three times with T-PBS. […] Reaction was terminated by adding 50 μL per well of 2M H2SO4, the plate was read at 490 nm using a SPECTRA MAX 190 microplate reader with tunable wavelength. […]
measure name: inhibition at 1 µM (%)

1. COc1ccc(-c2cnc3cnn(S(=O)(=O)c4cnc5ccc(O)cn45)c3c2)cc1 :: 100
2. Cn1cc(-c2cnc3cnn(S(=O)(=O)c4cnc5ccc(-c6cccc(C(F)(F)F)c6)cn45)c3c2)cn1 :: 44.4
3. COc1ccc2cc(-c3cnc4cnn(S(=O)(=O)c5cnc6ccc(OC)cn56)c4c3)ccc2c1 :: 99.3
4. CNC(=O)c1ccc(-c2ccc3ncc(S(=O)(=O)n4ncc5ncc(-c6cnn(CCN(C)C)c6)cc54)n3c2)cc1F :: 85.3
5. Cn1cc(-c2cnc3cnn(S(=O)(=O)c4cnc5ccc(Br)cn45)c3c2)cn1 :: 44.7
6. CCCCNc1ccc2ncc(S(=O)(=O)n3ncc4ncc(-c5cnn(C)c5)cc43)n2c1 :: 26.4
7. Cn1cc(-c2cnc3cnn(S(=O)(=O)c4cccc5nonc45)c3c2)cn1 :: 72.6
8. Cn1cc(-c2cnc3cnn(S(=O)(=O)c4cnc5ccc(-c6ccc(CN7CCOCC7)cc6)cn45)c3c2)cn1 :: 85.5
9. CC(C)C(=O)Oc1ccc2ncc(S(=O)(=O)n3ncc4ncc(-c5cnn(C)c5)cc43)n2c1 :: 99.3
10. Cn1cc(-c2ccc3ncc(S(=O)(=O)n4ncc5ncc(-c6cn[nH]c6)cc54)n3c2)cn1 :: 101
11. Cn1cc(-c2cnc3cnn(S(=O)(=O)c4cnc5ccc(-c6cccc(C#N)c6)cn45)c3c2)cn1 :: 87.3
12. Cn1cc(-c2cnc3cnn(S(=O)(=O)c4cnc5ccc(OC(=O)c6ccco6)cn45)c3c2)cn1 :: 101
13. COc1ccc(OC)c(-c2cnc3cnn(S(=O)(=O)c4cnc5ccccn45)c3c2)c1 :: 47.6
14. COc1ccc2ncc(S(=O)(=O)n3ncc4ncc(-c5ccc(N6CCOCC6)cc5)cc43)n2c1 :: 99.7
15. Cn1cc(-c2cnc3cnn(S(=O)(=O)c4cnc5ccc(-c6ccc7c(c6)OCO7)cn45)c3c2)cn1 :: 66.8
16. O=S(=O)(c1cnc2ccccn12)n1ncc2ncc(-c3ccoc3)cc21 :: 64.1
17. CC(=O)N1CCC(n2cc(-c3cnc4cnn(S(=O)(=O)c5cnc6ccccn56)c4c3)cn2)CC1 :: 57.9
18. CC(C)c1c(-c2cnn(C)c2)cnc2cnn(S(=O)(=O)c3cnc4ccc(-c5cnn(C)c5)cn34)c12 :: 101
